- Species: Homo sapiens
- test description: Inhibition of mRNA splicing of human SMN2 exon 7 transfected in HEK293H cells assessed as compound concentration required to increase full-length SMN2 mRNA level by 1.5 times after 24 hrs by RT-qPCR analysis relative to GAPDH
- Type: cell-based
endpoint name: log10 EC1.5 (log10 of the value in nM)
Base-10 log of EC1.5, unit nM.

Cc1cn2cc(-c3cc4ccc(N5CCN(CCF)[C@@H](C)C5)cc4oc3=O)nc2c(C)n1 : 1.57
Cc1cn2cc(-c3cc4ccc(N5CCN6CCC[C@H]6C5)cc4oc3=O)nc2c(C)n1 : 1.32
Cc1cn2cc(-c3cc(=O)n4cc(N5CCNCC5)ccc4n3)nc2c(C)n1 : 2.26

Ask: Using the record for O=c1oc2cc(N3CCNCC3)ccc2cc1-c1nc2ccccc2[nH]1 , state its measured log10 EC1.5.
Reply: 2.63

Ask: Using the record for Cc1cn2nc(-c3cc(=O)n4cc(C5CCN(C)CC5)ccc4n3)cc2c(C)n1 , state its measured log10 EC1.5.
Reply: 1.72

Ask: Using the record for Cc1cn2cc(-c3cc4ccc(N5CCC(N(C)C)CC5)cc4oc3=O)nc2c(C)n1 , state its measured log10 EC1.5.
Reply: 1.04

Ask: Using the record for Cc1cn2cc(-c3cc(=O)n4cc(N5CCNCC5)ccc4n3)cc(C)c2n1 , state its measured log10 EC1.5.
Reply: 1.68

Ask: Using the record for O=c1oc2cc(N3CCNCC3)ccc2cc1-c1nc2ccccc2s1 , state its measured log10 EC1.5.
Reply: 3.00

###

- test description: Efflux ratio of apparent permeability from basolateral to apical over apical to basolateral side in human Caco2 cells
- Format: ADME, cell-based
- cond: Caco-2
endpoint name: efflux ratio
Answer with the value's number alone.

Worked set:
CCN1CCN(c2ccc3cc(-c4cn5cc(C)nc(C)c5n4)c(=O)oc3c2)C[C@@H]1C : 1.9
Cc1cn2cc(-c3cc4ccc(N5CCN(C)CC5)cc4oc3=O)nc2cn1 : 0.74
Cc1cn2cc(-c3cc4ccc(N5CCN(C)CC5)cc4oc3=O)nc2c(C)n1 : 1.1
Cc1cn2cc(-c3cc4ccc(N5CCNCC5)cc4c(=O)o3)nc2c(C)n1 : 2.6
Cc1cn2cc(-c3cc4ccc(N5CCN(C)CC5)cc4c(=O)o3)nc2c(C)n1 : 1.3

Ask: Using the record for Cc1cn2nc(-c3cc(=O)n4cc(N5CCN(C)CC5)ccc4n3)cc2c(C)n1 , state its measured efflux ratio.
Reply: 1.7

Ask: Using the record for Cc1cn2nc(-c3cc(=O)n4cc(N5CCNCC5)ccc4n3)cc2c(C)n1 , state its measured efflux ratio.
Reply: 2.8

###

- Species: Homo sapiens
- test description: Inhibition of mRNA splicing of SMN2 exon 7 in GM03813 fibroblasts derived from SMA patient assessed as compound concentration required to increase SMN protein level by 1.5 times after 24 hrs by HTRF assay
# if measured EC1.5 < 60 nM: Condition met  # else: Condition not met

Please review the following examples before continuing.
COc1ccc(-c2nc3ccc(N4CCNCC4)cc3[nH]c2=O)cc1OC : Condition not met
Cc1cn2cc(-c3cc4ccc(N5CC[C@H]6CNC[C@H]65)cc4oc3=O)nc2c(C)n1 : Condition not met
Cc1cn2nc(-c3cc(=O)n4cc(N5CCN[C@@H](C)C5)ccc4n3)cc2c(C)n1 : Condition not met
O=c1oc2cc(N3CCNCC3)ccc2cc1-c1cn2ccsc2n1 : Condition not met
O=c1oc2cc(N3CCNCC3)ccc2cc1-c1cn2ccncc2n1 : Condition not met

Ask: Answer whether the compound Cc1cn2cc(-c3cc4ccc(N5CCN[C@H](C)C5)cc4oc3=O)nc2c(C)n1 has EC1.5 strictly less than 60 nM
Reply: Condition met

Ask: Answer whether the compound Cc1cn2nc(-c3cc(=O)n4cc(N5CCNCC5)ccc4n3)cc2c(C)n1 has EC1.5 strictly less than 60 nM
Reply: Condition met

Ask: Answer whether the compound Cc1cn2cc(-c3cc4ccc(N5CCNCC5)cc4c(=O)o3)nc2c(C)n1 has EC1.5 strictly less than 60 nM
Reply: Condition met

Ask: Answer whether the compound CCN1CCN(c2ccc3cc(-c4cn5cc(C)nc(C)c5n4)c(=O)oc3c2)CC1 has EC1.5 strictly less than 60 nM
Reply: Condition not met

Ask: Answer whether the compound O=c1oc2cc(N3CCNCC3)ccc2cc1-c1cn2ccccc2n1 has EC1.5 strictly less than 60 nM
Reply: Condition not met
